Can you tell me protein stability index for the items I'm about to list?
B1: ADAMTS4 (parent)
chain: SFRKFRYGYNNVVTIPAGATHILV

variants of: B1; experiment: protein stability index of a GFP-peptide fusion (GPS, HEK-293T) (PSI 1-6); higher = more stable; conditions: c terminus: a fixed tail appended;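 note: lentivirally expressed fusions sorted by FACS into six bins by GFP to DsRed ratio, PSI derived from sequencing read proportions per bin multiplied by bin number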
Enter the number alone.

Lookup: Please look at this variant and report its protein stability index: `T14R`
Found: 1.93

Lookup: Could you please provide reported protein stability index for `T14I` ? Thanks!
Found: 2.36

Lookup: Supply reported protein stability index belonging to this variant: `T14Q`
Found: 2.2

Lookup: Tell us which protein stability index value is on record for `A19R`
Found: 2.67

Lookup: Give me measured protein stability index, please, for this variant: `T14F`
Found: 2.74

Lookup: Fill in reported protein stability index for this entry: `R3K`
Found: 3.1

Lookup: Answer with reported protein stability index of `R3D`
Found: 1.61

Lookup: Write down protein stability index measured for item `Y9F`
Found: 1.72

Lookup: Read off the recorded protein stability index for `N10M`
Found: 2.49

Lookup: Identify measured protein stability index corresponding to `V13A`
Found: 3.18

Lookup: Provide one value: measured protein stability index of `G8T`
Found: 2.71

Lookup: Hello, please tell me recorded protein stability index for this one: `I15D`
Found: 2.35

Lookup: Item `L23M` : provide protein stability index
Found: 2.43

Lookup: Using known records, supply protein stability index for `A19F`
Found: 3.91

Lookup: Using known records, supply protein stability index for `V24C`
Found: 2.39

Lookup: Please look at this variant and report its protein stability index: `P16W`
Found: 2.05

Lookup: Note down protein stability index recorded for `L23H`
Found: 2.91

Lookup: For `I22P` , write its protein stability index.
Found: 2.59

Lookup: Write down protein stability index measured for item `F5N`
Found: 1.84

Lookup: Specify reported protein stability index for the variant shown: `I22L`
Found: 2.51

Lookup: # return recorded protein stability index for input `L23A`
Found: 2.4

Lookup: Answer with reported protein stability index of `Y7F`
Found: 3.04

These measurements were taken from the supplement of paper PMC10567573.
